test system: HEK293; assay: Cytotoxic Profiling of Annotated Libraries Using Quantitative High-Throughput Screening (AID 1296008); conditions: Five cell lines viability, CellTiter-Glo ATP luminescence, 48-72 h; active compounds read low; also: % is scaled to controls: 0 for no effect and ±100 for the full control effect; nearly all actives have a fitted effect of over 60% in size
Inconclusive results are not listed. Calls of active or inactive are those of the source. Calls follow the shape of the dose curve; as a rule, active = well fitted inhibition curve with a large enough effect; inconclusive = small, poorly fitted or top-dose-only effect; inactive = flat fitted curve, though single readings scatter.
RESULT TYPE: max response

Past entries and their recorded results:
Value of measured max response for the entry CCC1(c2cnc[nH]2)Cc2ccccc2C1 : -9.84% (inactive)

Just so you know, measured max response for COc1cc(N)c(Cl)cc1C(=O)NC1CN2CCC1CC2 (centres undefined) came out at -0.75% (inactive)

The reported max response of the compound C[C@]12CC[C@H]3[C@@H](CC=C4C[C@@H](O)CC[C@@]43C)[C@@H]1CC[C@@H]2O was -6.75% (inactive)

***
# max response (compound: CCOC(=O)c1cncn1C(C)c1ccccc1 (centres undefined) ) is -6.12% (inactive)

Notebook: CN(C)C(=O)Oc1cc(OC(=O)N(C)C)cc(C(O)CNC(C)(C)C)c1 (centres undefined) , max response read as -17.2% (inactive)

The compound listed as C[C@@H]1CN(C2CCC(C#N)(c3ccc(F)cc3)CC2)CC[C@]1(C(=O)O)c1ccccc1 (some centres undefined) shows max response equal to -6.67% (inactive)

Entry CC(Cc1ccccc1)NCCCCl (centres undefined) , max response reported as 0.613% (inactive)

max response in this record for ClCc1cccc(Cl)c1 : -1.26% (inactive)

Lab note: CCC(=O)C(CCN(C)C)(c1ccccc1)c1ccccc1 gave max response of -18.5% (inactive)

Form: compound = C[N+](C)(C)CCOC(=O)C(O)(c1ccccc1)c1ccccc1 ; max response = -0.686% (inactive)

The compound listed as C[C@]12CC[C@H]3[C@@H](CCC4=CC(=O)CC[C@@]43C)[C@@H]1CC[C@@H]2C(=O)O shows max response equal to -4.71% (inactive)

Short answer for CCc1ccc(C2CCNCC2)cc1 : max response was -21.3% (inactive)

COc1ccc2[nH]cc(CCN(C(C)C)C(C)C)c2c1 yielded max response of -7.74% (inactive)

Entry under test: CCOC(C(=O)OCCN(C)C)(c1ccccc1)c1ccccc1 . Its max response was -2.86% (inactive)

Form field max response, entry NC(=O)OCCCc1ccccc1 : 3.07% (inactive)

Value of measured max response for the entry CCC1(c2cccc(O)c2)CCCCN(C)C1 (centres undefined) : -2.39% (inactive)

max response in this record for COc1ccc(OC)c(CC(C)N)c1 (centres undefined) : -0.178% (inactive)

Entry C[C@]12CC[C@H]3[C@@H](CCC4=CC(=O)CC[C@@H]43)[C@@H]1CC[C@@H]2O ; max response = 0.616% (inactive)

Reported max response ( CCC(=O)OC1(c2ccccc2)CCN(C)CC1 ) = -12.2% (inactive)

Query CC1N=C(N)OC1c1ccccc1 (centres undefined) yields max response of -15.4% (inactive)

Notebook: CNC(=O)NC(O)C(Cl)(Cl)Cl (centres undefined) , max response read as 2.62% (inactive)

Entry CNC(C)Cc1ccccc1OC (centres undefined) ; max response = -10.8% (inactive)

Recorded max response (compound COCC(=O)N(c1c(C)cccc1C)C(C)C(=O)OC (centres undefined) ): -19.3% (inactive)

Memo: O=c1n(Cl)c(=O)n(Cl)c(=O)n1Cl , reported max response: -82.7% (inactive)

Recorded result, CCCCC1C(=O)NC(=O)N(C2CCCCC2)C1=O (centres undefined) , max response: 0.515% (inactive)

Per the record, COP(=O)(OC)OC=C(Cl)Cl has max response of -1.59% (inactive)

Origin of values: PubChem BioAssay (NCATS)
